Hi there, I'd appreciate the recorded growth inhibition for every entry that follows.
# ASSAY PROTOCOL: NCI Yeast Anticancer Drug Screen. Data for the sgs1 mgt1 strain (AID 161);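 further: 0% = growth of cultures given vehicle only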
# RUN PARAMETERS: S. cerevisiae sgs1 mgt1 strain, at 5.0 µM (retest, dose inferred, filed as 0.5), active compounds read high
This is part of a sample that, as a whole, favours compounds with a hit. Of some 79,000 tested, about 15% had one in any assay.
One number for each entry, in %.

Solved entries:
>>> data_value("Nc1ccc2cc3ccc(N)cc3nc2c1")
11
>>> data_value("CCCCCCCCCCS(=O)CC(CO)NC(=O)/C=C/c1c(C)[nH]c(=O)[nH]c1=O (stereo not drawn)")
68

For each of the compounds below, note its growth inhibition.
1. Cc1cc2c(c(Br)c1O)Oc1c(cc(C)c(O)c1Br)C21OC(=O)c2ccccc21
2. C=CCNC(=O)c1ccccc1SC(C)=O
3. Cc1c(N)nc(C(CC(N)=O)NCC(N)C(N)=O)nc1C(=O)NC(C(=O)NC(C)C(O)C(C)C(=O)NC(C(=O)NCCc1nc(-c2nc(C(=O)NCCCNCCCCN)cs2)cs1)C(C)O)C(OC1OC(CO)C(O)C(O)C1OC1OC(CO)C(O)C(OC(N)=O)C1O)c1cnc[nH]1 (stereo not drawn)
4. O=S(=O)(c1ccc(F)cc1)c1ccc(F)cc1
5. CCn1c2ccccc2c2ccc(N=Cc3ccc(N(C)C)cc3)cc21
6. CC(=O)OC1OC(=O)C(C)(C(C)=O)C1C (stereo not drawn)
7. Cc1c(Cl)cccc1NC(=O)CC1Sc2ccccc2NC1=O (stereo not drawn)
8. CCCCCCCCCCCCCCCCCC(=O)NCCO

1: 55; 2: 20; 3: 77; 4: -6; 5: 2; 6: 25; 7: 2; 8: 0

For each of the compounds below, note its growth inhibition.
1. Oc1ccc(Cc2ccccc2)cc1
2. NNc1nc2ccccc2s1
3. O=[N+]([O-])C(/C=C(\Cl)[N+](=O)[O-])=C(Nc1ccccc1)Nc1ccccc1

-4
2
-16

For each of the compounds below, note its growth inhibition.
1. Nc1nc(Cl)cc(NCCCCCCCCCCNc2cc(Cl)nc(N)n2)n1
2. OC(CN1CCCCC1)c1cc(-c2ccc(Cl)cc2)nc2cc(Cl)ccc12 (stereo not drawn)

[-1, -4]

For each of the compounds below, note its growth inhibition.
1. CN(C)CCCN=c1c2ccccc2n(O)c2cccc([N+](=O)[O-])c12
2. CC(C)Oc1ccc(Nc2ccccc2)cc1
3. O=S(=O)(CC(Cl)c1ccccc1)c1nc2ccccc2s1 (stereo not drawn)
4. CCN1CCC(O)(c2ccc(Oc3ccccc3)cc2)C(C(=O)c2ccc(Oc3ccccc3)cc2)C1 (stereo not drawn)
5. CC1(C)C(c2ccccc2)=Nc2ccccc21
6. O=C(O)COc1ccc(OCC(=O)O)cc1

[2, -1, 9, 23, -13, -1]

For each of the compounds below, note its growth inhibition.
1. CCCCC(O)CC (stereo not drawn)
2. NC(CCCCNC(=O)c1ccccc1)C(=O)O (stereo not drawn)

-2
0
